Documented Dmax across a set of compounds
# target.or.system: IRAK4 (Homo sapiens (Human))
# protocol.text: IRAK4 Degradation HiBiT Assay
# condition.parameters: Jurkat, read-out: Cellular IRAK4 HiBiT: Dmax, Table 4; HiBiT-tagged Jurkat cells, 4 hrs
# Sequence (Q9NWZ3 whole entry): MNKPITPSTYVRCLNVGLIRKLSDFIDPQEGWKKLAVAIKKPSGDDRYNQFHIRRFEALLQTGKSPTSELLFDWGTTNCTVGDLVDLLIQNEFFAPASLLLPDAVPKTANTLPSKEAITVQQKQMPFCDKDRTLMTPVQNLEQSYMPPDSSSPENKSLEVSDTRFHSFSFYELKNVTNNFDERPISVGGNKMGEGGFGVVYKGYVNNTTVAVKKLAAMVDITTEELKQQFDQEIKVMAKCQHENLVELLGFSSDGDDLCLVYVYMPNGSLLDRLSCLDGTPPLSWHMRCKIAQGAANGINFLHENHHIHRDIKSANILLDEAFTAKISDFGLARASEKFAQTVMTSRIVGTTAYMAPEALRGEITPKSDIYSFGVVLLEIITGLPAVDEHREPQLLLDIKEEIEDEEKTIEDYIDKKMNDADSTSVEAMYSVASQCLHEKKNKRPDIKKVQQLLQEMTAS
Please state the figure in %; there is no need to write the unit.

compound CC(C)Nc1cc(-c2ccc3cc(C#N)cnn23)ncc1-c1nnc(N2CCN(C(=O)CCCCCNc3ccc4c(c3)C(=O)N(C3CCC(=O)NC3=O)C4=O)CC2)s1 (centres unmarked) , Dmax observed: 82

###

# target.or.system: IRAK4 (Homo sapiens (Human), UniProt Q9NWZ3)
# protocol.text: IRAK4 Degradation HTRF Assay
# Type: cell-based
# condition.parameters: wild-type Jurkat cells, 4 hrs
# Protocol: DMSO was stamped into wells A12-H12 at 400 nL/well (NC, Negative Control, maximum signal). […] Following incubation, plates were centrifuged for 5 min at 1600 rpm. […] Cells were incubated 30 min at room temperature with gentle shaking. […] Fluorescence emission at 665 nm and 620 nm was read using an EnVision plate reader. The HTRF Ratio was calculated per sample using the following equation: HTRF Ratio=(665 nm signal/620 nm signal)×10,000
recorded.metric: DC50 (nM)
Please state the figure in nM; there is no need to write the unit.

Some molecules with known DC50 results, for comparison:
molecule CC(C)Nc1cc(-c2ccc3cc(C#N)cnn23)ncc1-c1nnc(N2CCN(C(=O)C3CCN(CC4CCN(c5ccc(-c6nn(C7CCC(=O)NC7=O)c(=O)n6C)cc5)CC4)CC3)CC2)s1 (stereo not drawn) , DC50 observed: 420

molecule CC(C)Nc1cc(-c2ccc3cc(C#N)cnn23)ncc1-c1nnc(N2CCN(C(=O)C3CCN(Cc4ccc5c(c4)C(=O)N(C4CCC(=O)NC4=O)C5=O)CC3)CC2)s1 (stereo not drawn) , DC50 observed: 50

molecule CC[C@@H]1[C@H](F)C(=O)N[C@@H]1COc1ncc(C#CCN2CCC3(CC2)CCN(c2ncc(C(=O)N[C@H](C(=O)N4C[C@H](O)C[C@H]4C(=O)NCc4ccc(-c5scnc5C)cc4)C(C)(C)C)cn2)CC3)c2cc(C(N)=O)c(OC)cc12 [Comparative b1, reference compound] , DC50 observed: 80

Others:
molecule "Cc1ncsc1-c1ccc(CNC(=O)[C@@H]2C[C@@H](O)CN2C(=O)[C@@H](NC(=O)C2(F)CC2)C(C)(C)C)c(OCCOCCC(=O)N2CCN(c3nnc(-c4cnc(-c5ccc6cc(C#N)cnn56)cc4NC(C)C)s3)CC2)c1" , DC50 observed: 140

molecule NC(=O)c1nn(-c2ccc(C(=O)NCCOCCOCCNc3cccc4c3C(=O)N(C3CCC(=O)NC3=O)C4=O)cc2)cc1NC(=O)c1coc(-c2ccnc(NCC(F)(F)F)c2)n1 (stereo not drawn) [Comparative Compound a2, reference compound] , DC50 observed: 60

molecule "Cc1ncsc1-c1ccc(CNC(=O)[C@@H]2C[C@@H](O)CN2C(=O)[C@@H](NC(=O)CCCC(=O)N2CCN(c3nnc(-c4cnc(-c5ccc6cc(C#N)cnn56)cc4NC(C)C)s3)CC2)C(C)(C)C)cc1" , DC50 observed: 400

###

# target.or.system: UniProt:Q9NWZ3
# protocol.text: IRAK4 Biochemical HTRF Kinase Assay
# condition.parameters: Table 4; read-out: IRAK4 HTRF biochemical: IC50
# Sequence (Q9NWZ3 whole entry, species assumed): as the sequence (Q9NWZ3 whole entry) above
recorded.metric: pIC50
Reminder that pIC50 is minus the log10 of a molar concentration.

Kindly note: UniProt:Q9NWZ3, CNc1cc(-c2ccc3cc(C#N)cnn23)ncc1-c1nnc([C@H]2CC[C@H](NC(=O)CN3CCN(c4ccc5c(c4)C(=O)N(C4CCC(=O)NC4=O)C5=O)CC3)CC2)s1 (some centres unmarked) , pIC50 value reported: 9.02

Kindly note: UniProt:Q9NWZ3, CC(C)Nc1cc(-c2ccc3cc(C#N)cnn23)ncc1-c1nnc(N2CCN(C(=O)CCN3CCN(c4ccc5c(c4)C(=O)N(C4CCC(=O)NC4=O)C5=O)CC3)CC2)s1 (centres unmarked) , pIC50 value reported: 9.10

Kindly note: UniProt:Q9NWZ3, Cc1ncsc1-c1ccc(CNC(=O)[C@@H]2C[C@@H](O)CN2C(=O)C(NC(=O)[C@H]2CC[C@H](CN3CCN(c4nnc(-c5cnc(-c6ccc7cc(C#N)cnn67)cc5NC(C)C)s4)CC3)CC2)C(C)(C)C)cc1 (some centres unmarked) , pIC50 value reported: 7.81

Kindly note: UniProt:Q9NWZ3, CC(C)Nc1cc(-c2ccc3cc(C#N)cnn23)ncc1-c1nnc(N2CCN(CC3CCN(c4cccc5c4n(C)c(=O)n5C4CCC(=O)NC4=O)CC3)CC2)s1 (centres unmarked) , pIC50 value reported: 8.64

Proceeding to the next compound to report its pIC50.
Kindly note: UniProt:Q9NWZ3, CC(C)Nc1cc(-c2ccc3cc(C#N)cnn23)ncc1-c1nnc(N2CCN(C(=O)CCCCCCCNc3cccc4c3C(=O)N(C3CCC(=O)NC3=O)C4=O)CC2)s1 (centres unmarked) , pIC50 value reported: 9.10

###

# target.or.system: IRAK4 (Homo sapiens (Human), UniProt Q9NWZ3)
# protocol.text: IRAK4 Degradation HiBiT Assay
# condition.parameters: Jurkat, read-out: Cellular IRAK4 HiBiT: Dmax, Table 5; multiple runs; HiBiT-tagged Jurkat cells, 4 hrs
Documented Dmax across a set of compounds
Please make sure the unit comes right after the number.

Some compounds with known Dmax results, for comparison:
compound CNc1cc(-c2ccc3cc(C#N)cnn23)ncc1-c1nnc([C@H]2CC[C@H](N(C)CC3CCN(c4ccc(C(=O)NC5CCC(=O)NC5=O)nc4)CC3)CC2)s1 (stereo partly shown) [Example 167] , Dmax observed: 107%

compound CNc1cc(-c2ccc3cc(C#N)cnn23)ncc1-c1nnc(N2CC3CCC(C2)N3C2CCN(C(=O)c3ccc4c(c3)C(=O)N(C3CCC(=O)NC3=O)C4)CC2)s1 (stereo not shown) [Example 162] , Dmax observed: 110%

compound CNc1cc(-c2ccc3cc(C#N)cnn23)ncc1-c1nnc([C@H]2CC[C@H](NC(=O)CCCC(=O)N[C@H](C(=O)N3C[C@H](O)C[C@H]3C(=O)NCc3ccc(-c4scnc4C)cc3)C(C)(C)C)CC2)s1 [Example 59] , Dmax observed: 101%

Others:
compound CC(C)Nc1cc(-c2ccc3cc(C#N)cnn23)ncc1-c1nnc(N2CCN(C(=O)CCCCCCCNc3ccc4c(c3)C(=O)N(C3CCC(=O)NC3=O)C4=O)CC2)s1 (stereo not shown) [Example 5] , Dmax observed: 57%

compound CNc1cc(-c2ccc3cc(C#N)cnn23)ncc1-c1nnc([C@H]2CC[C@H](NC(=O)[C@H]3C[C@@H](OCCNc4cccc5c4C(=O)N(C4CCC(=O)NC4=O)C5=O)C3)CC2)s1 (stereo partly shown) [Example 69] , Dmax observed: 73%

###

# target.or.system: IRAK4 (Homo sapiens (Human))
# protocol.text: IRAK4 Biochemical HTRF Kinase Assay
# condition.parameters: Table 5; multiple runs; read-out: IRAK4 HTRF biochemical: IC50
Documented pIC50 across a set of molecules
Reminder that pIC50 is minus the log10 of a molar concentration.

Some molecules with known pIC50 results, for comparison:
molecule CNc1cc(-c2ccc3cc(C#N)cnn23)ncc1-c1nnc(N2CCN(C[C@@H]3CCN(c4ccc5c(c4)n(C)c(=O)n5C4CCC(=O)NC4=O)C3)CC2)s1 (stereo partly shown) , pIC50 observed: 9.00

molecule CC(C)Nc1cc(-c2ccc3cc(C#N)cnn23)ncc1-c1nnc(N2CCC(NCC3CCN(c4ccc5c(c4)C(=O)N(C4CCC(=O)NC4=O)C5=O)CC3)CC2)s1 (stereo not shown) , pIC50 observed: 9.10

molecule CC(C)Nc1cc(-c2ccc3cc(C#N)cnn23)ncc1-c1nnc(N2CCN(C(=O)C3CCN(C(=O)CNc4cccc5c4C(=O)N(C4CCC(=O)NC4=O)C5=O)CC3)CC2)s1 (stereo not shown) , pIC50 observed: 8.72

molecule CC(C)Nc1cc(-c2ccc3cc(C#N)cnn23)ncc1-c1nnc(N2CCN(C3CCN(C(=O)c4ccc5c(c4)C(=O)N(C4CCC(=O)NC4=O)C5)CC3)CC2)s1 (stereo not shown) , pIC50 observed: 9.30

molecule CNc1cc(-c2ccc3cc(C#N)cnn23)ncc1-c1nnc(N2CCN(C3CCN(Cc4ccc(C(=O)NC5CCC(=O)NC5=O)cc4)CC3)CC2)s1 (stereo not shown) , pIC50 observed: 8.74

molecule CNc1cc(-c2ccc3cc(C#N)cnn23)ncc1-c1nnc([C@H]2CC[C@H](NC(=O)[C@H]3C[C@@H](OCCNc4cccc5c4C(=O)N(C4CCC(=O)NC4=O)C5=O)C3)CC2)s1 (stereo partly shown) , pIC50 observed: 9.05

Others:
molecule "Cc1ncsc1-c1ccc([C@H](C)NC(=O)[C@@H]2C[C@@H](O)CN2C(=O)[C@@H](NC(=O)CCOCCOCCOCCC(=O)N2CCN(c3nnc(-c4cnc(-c5ccc6cc(C#N)cnn56)cc4NC(C)C)s3)CC2)C(C)(C)C)cc1" , pIC50 observed: 8.62

molecule "CNc1cc(-c2ccc3cc(C#N)cnn23)ncc1-c1nnc(N2CC3CCC(C2)N3C(=O)C[C@H](NC(=O)[C@@H]2C[C@@H](O)CN2C(=O)[C@@H](NC(=O)C2(F)CC2)C(C)(C)C)c2ccc(-c3scnc3C)cc2)s1" , pIC50 observed: 9.30

molecule "CN[C@@H](C)C(=O)N[C@H](C(=O)N1C[C@@H](NC(=O)CCOCCC(=O)N2CCN(c3nnc(-c4cnc(-c5ccc6cc(C#N)cnn56)cc4NC(C)C)s3)CC2)C[C@H]1C(=O)N[C@@H]1CCCc2ccccc21)C1CCCCC1" , pIC50 observed: 9.22

molecule "Cc1ncsc1-c1ccc(CNC(=O)[C@@H]2C[C@@H](O)CN2C(=O)[C@@H](NC(=O)C2(F)CC2)C(C)(C)C)c(OCC(=O)N2CCC(C(=O)N3CCN(c4nnc(-c5cnc(-c6ccc7cc(C#N)cnn67)cc5NC(C)C)s4)CC3)CC2)c1" , pIC50 observed: 8.43

molecule "CN[C@@H](C)C(=O)N[C@H](C(=O)N1C[C@@H](NC(=O)CCCCCCCCCCC(=O)N2CCN(c3nnc(-c4cnc(-c5ccc6cc(C#N)cnn56)cc4NC(C)C)s3)CC2)C[C@H]1C(=O)N[C@@H]1CCCc2ccccc21)C1CCCCC1" , pIC50 observed: 8.24

molecule CNc1cc(-c2ccc3cc(C#N)cnn23)ncc1-c1nnc([C@H]2CC[C@H](N(C)CC3CCN(c4ccc5c(=O)n(C6CCC(=O)NC6=O)ccc5c4)CC3)CC2)s1 (stereo partly shown) , pIC50 observed: 9.30

molecule CNc1cc(-c2ccc3cc(C#N)cnn23)ncc1-c1nnc([C@H]2CC[C@H](N(C)C(=O)Cc3ccc4c(c3)CN(C3CCC(=O)NC3=O)C4=O)CC2)s1 (stereo partly shown) , pIC50 observed: 9.22

molecule CNc1cc(-c2ccc3cc(C#N)cnn23)ncc1-c1nnc(C23CCC(NC(=O)CCCCCNc4cccc5c4C(=O)N(C4CCC(=O)NC4=O)C5=O)(CC2)CC3)s1 (stereo not shown) , pIC50 observed: 8.70

molecule CNc1cc(-c2ccc3cc(C#N)cnn23)ncc1-c1nnc([C@H]2CC[C@H](N(C)CC3CCN(c4ccc(C(=O)N(C)C5CCC(=O)NC5=O)cc4)CC3)CC2)s1 (stereo partly shown) , pIC50 observed: 9.52

molecule CNc1cc(-c2ccc3cc(C#N)cnn23)ncc1-c1nnc(N2CC3(CCN(C(=O)C4CCN(c5ccc6c(c5)C(=O)N(C5CCC(=O)NC5=O)C6=O)CC4)CC3)C2)s1 (stereo not shown) , pIC50 observed: 9.30

molecule CNc1cc(-c2ccc3cc(C#N)cnn23)ncc1-c1nnc([C@H]2CC[C@H](N(C)C(=O)CN3CCN(c4ccc5c(c4)C(=O)N(C4CCC(=O)NC4=O)C5=O)CC3)CC2)s1 (stereo partly shown) , pIC50 observed: 7.65

molecule "CNc1cc(-c2ccc3cc(C#N)cnn23)ncc1-c1nnc(C23CCC(NC(=O)CCCC(=O)N[C@H](C(=O)N4C[C@H](O)C[C@H]4C(=O)NCc4ccc(-c5scnc5C)cc4)C(C)(C)C)(CC2)CC3)s1" , pIC50 observed: 8.85

molecule CC(C)Nc1cc(-c2ccc3cc(C#N)cnn23)ncc1-c1nnc(N2CCN(C3CCN(Cc4ccc5c(c4)C(=O)N(C4CCC(=O)NC4=O)C5=O)CC3)CC2)s1 (stereo not shown) , pIC50 observed: 8.72
